experimental-details: Dissolving and recrystallization behavior of active ingredient in 1,3-bis(1-pyrrolidonyl)butane (DHVP) test system
condition-label: 30% by weight in DHVP, heated
quantity-kind: Sol. at (temperature at which solution forms)

CCS(=O)(=O)Oc1ccc2c(C)c(C)c(=O)oc2c1    Sol. at 70 °C
CN(C)CCOC1=Cc2ccccc2Sc2ccc(Cl)cc21 [Zotepine]    Sol. at 70 °C

----------
experimental-details: Dissolving and recrystallization behavior of active ingredient in 1,3-bis(1-pyrrolidonyl)butane (DHVP) test system
condition-label: 10% by weight in DHVP, room temperature
quantity-kind: RT: solution in DHVP

CCS(=O)(=O)Oc1ccc2c(C)c(C)c(=O)oc2c1 [Esuprone]    RT: +
COc1ccc(CCN(C)CCCC(C#N)(c2cc(OC)c(OC)c(OC)c2)C(C)C)cc1OC.Cl (centres unmarked) [Gallopamil HCl]    RT: +
CC(=O)Nc1ccc(O)cc1 [Paracetamol]    RT: −
CC(C)Cc1ccc(C(C)C(=O)O)cc1 (centres unmarked) [Ibuprofen]    RT: +

// next item, RT: solution in DHVP requested
Given item CN(C)CCOC1=Cc2ccccc2Sc2ccc(Cl)cc21 [Zotepine] , the value recorded as its RT: solution in DHVP is RT: +
